Source listed as PubChem BioAssay (NCI).

Tested on: MDA-MB-435 melanoma
Assay Overview: NCI-60 one-dose screen, 48 h
Study Conditions: 10 µM unless noted
Compounds without any hit were thinned out: in the full panel of roughly 83,000, 20% have a hit. Calls of active or inactive are those of the source. How the source made its calls: active means growth percent below 10; inactive means the rest.
Outcomes: TRUE (active), FALSE (inactive)

>>> df
                                   compound    cat
0  COc1cccc(NC(=O)c2sc3nc(C)c(C(O)c4ccccc4)cc3c2N)c1 (centres undefined)   TRUE
1  OCCN1CCN(c2cc(-c3cccc(OC(F)(F)F)c3)nc3ccc(N4CCCC4)cc23)CC1  FALSE
2  COC(=O)[C@H]1Cc2c([nH]c3ccccc23)[C@@H](c2cccs2)N1  FALSE
3  CC(=O)N1N=C(c2ccc(Nc3nc(Nc4ccc(F)cc4)nc(Nc4ccc(Cl)cc4)n3)cc2)CC1c1ccc(N(C)C)cc1 (centres undefined)  FALSE

---

System: A549/ATCC NSCLC
Assay Overview: NCI-60 one-dose screen, 48 h (100 = growth as untreated, 0 = no growth, -100 = all killed)
Study Conditions: 10 µM unless noted
Experimental: Growth inhibition of the A549/ATCC human Non-Small Cell Lung tumor cell line is measured as a screen for anti-cancer activity. Cells are grown in 96 well plates and exposed to the test compound for 48 hours. Compounds are tested at a single concentration, which is 10^-5 M for most compounds. The reported endpoint is percent growth (GI% or GIPRCNT), where numbers from 0 - 100% represent growth inhibition, and numbers from -100% - 0 represent cell death. […]
This is part of a sample that, as a whole, favours compounds with a hit. Of some 83,000 tested, about 20% had one in any assay.
// NB: equality with 20% counts as 0 (no); only growth strictly below is 1 (yes)

>>> print(df.to_string())
                                chem_smiles      cat
0  COc1ccc(-c2ccc(-c3ccc(C(=N)N)cn3)s2)cc1Cl  1 (yes)
1    Cc1ccc(Cc2cnc(NC(=O)c3cc(C)oc3C)s2)cc1   0 (no)
2  O=S(=O)(Nc1cc(Sc2cccc3cccnc23)c(O)c2ccccc12)c1ccc(F)cc1  1 (yes)
3  O=S(=O)(Nc1ccc(F)cc1)c1ccc(-c2cnc(C3CC3)o2)cc1   0 (no)
4  O=C1/C(=C/c2cn(-c3ccccc3)nc2-c2ccccc2)SC(=S)N1c1ccccc1   0 (no)
5  O=C1/C(=C/c2ccccc2)CN(C(=O)C(Cl)Cl)C/C1=C\c1ccccc1   0 (no)
6  COc1ccc(NC(=O)Nc2ccccc2CNc2nc(Nc3ccc(OCCN4CCCC4)cc3)ncc2Cl)cc1  1 (yes)
7  O=C(/C=C/c1ccc(F)cc1)Nc1ncc(Cc2ccc(F)cc2)s1   0 (no)

---

System: M14 melanoma
Assay Overview: NCI-60 one-dose screen, 48 h (100 = growth as untreated, 0 = no growth, -100 = all killed)
Study Conditions: 10 µM unless noted
The panel holds about 83,000 compounds, 20% with a hit somewhere; the sample as a whole holds those more often.
Observable: growth (%)

>>> df
                                   compound  observed_result
0  COc1ccc2c(c1)CC[C@@H]1[C@@H]2CC[C@]2(C)C3C(=CCC4C(=O)N(c5ccccc5)C(=O)C43)C[C@@H]12 (stereo partly drawn)             89.4
1      N#C/C(=C\c1ccccc1Cl)c1cc2ccccc2[nH]1             91.8
2  Cn1c(=O)c2c(nc(Nc3cc(=O)[nH]c(=O)[nH]3)n2Cc2ccccc2)n(C)c1=O             91.8

---

System: SK-MEL-2 melanoma
Assay Overview: NCI-60 one-dose screen, 48 h
Study Conditions: 10 µM unless noted
This is part of a sample that, as a whole, favours compounds with a hit. Of some 83,000 tested, about 20% had one in any assay. Calls of active or inactive are those of the source. How the source made its calls: active means growth percent below 10; inactive means the rest.
Outcome codes: true for active, false for inactive

Compound	Cat
Clc1ccc(CNc2ccc3nc(CCC4CCCCC4)[nH]c3c2)cc1	false
COc1ccc(-c2cc(-c3cc(OC)c(OC)c(OC)c3)c(C#N)c(=O)n2CCCCC(=O)O)cc1	false
O=C(/C=C/c1ccc([N+](=O)[O-])cc1)c1ccccc1	false
CCCCCCCCCCCCCCCC(=O)O[C@@H]1[C@@H](O)[C@@H](O)C([C@H](NC(=O)[C@@H]2C[C@@H](CCC)CN2C)[C@H](C)Cl)O[C@@H]1SC (stereo partly specified)	false
COc1cccc(C2C(C#N)=C(N)Oc3cc(OCCCCCC[P+](c4ccccc4)(c4ccccc4)c4ccccc4)ccc32)c1 (stereo unspecified)	true
CN1CCN(C(=O)OCc2nc3c(N4CCOCC4)nc(Cl)nc3n2C)CC1	true

---

Recorded growth values for a group of molecules are listed next.
Test system: CAKI-1 renal
Assay Overview: NCI-60 one-dose screen, 48 h (100 = growth as untreated, 0 = no growth, -100 = all killed)
Study Conditions: 10 µM unless noted
Description: Growth inhibition of the CAKI-1 human tumor cell line is measured as a screen for anti-cancer activity. Cells are grown in 96 well plates and exposed to the test compound for 48 hours. Compounds are tested at a single concentration, which is 10^-5 M for most compounds. The reported endpoint is percent growth (GI% or GIPRCNT), where numbers from 0 - 100% represent growth inhibition, and numbers from -100% - 0 represent cell death. For example, a value of 40 represents 60% growth inhibition. […]
This is part of a sample that, as a whole, favours compounds with a hit. Of some 83,000 tested, about 20% had one in any assay.
Observable: growth (%)

>>> df
                                   molecule  measurement_unit  observed_result
0  CCOC(=O)c1cc2c(n1Cc1cc(OC)cc(OC)c1Br)-c1nc(NC(C)=O)sc1CCC2                 %             67.3
1  CN(C)CCCn1c2nc(=O)[nH]c(=O)c-2nc2cc(Cl)c(Cl)cc21                 %               79
2  Cc1ccc(-c2nc3nc(-c4ccc(Cl)cc4)nc(N4CCCNCC4)c3o2)cc1                 %            -92.3
3  COc1ccc(-c2cc(-c3cccnc3)nc3sc4c(Cl)nnnc4c23)cc1OC                 %              101
4    CC(Sc1ccccc1)C(=O)O (stereo not given)                 %             76.5

---

Test system: RPMI-8226 leukemia
Assay Overview: NCI-60 one-dose screen, 48 h (100 = growth as untreated, 0 = no growth, -100 = all killed)
Study Conditions: 10 µM unless noted
Compounds without any hit were thinned out: in the full panel of roughly 83,000, 20% have a hit.
Observable: growth (%)

>>> df
                                   molecule  observable  observed_result
0  Cc1nc2sc(C(=O)Nc3cccc4ncccc34)c(N)c2cc1C(C)O (stereo unspecified)      growth             75.8
1  COc1ccc(-c2csc(NC(=O)CN3CCN(CCO)CC3)n2)cc1NS(=O)(=O)c1cccc2c(N(C)C)cccc12      growth               36
2  COc1cc(/C=C/C(=O)c2ccc(NC(=O)CSc3nnc(-c4cc(-c5ccccc5)nc5ccccc45)n3-c3ccccc3)cc2)cc(OC)c1OC      growth             72.3
3  Cc1ccc(-c2nc(SCC(=O)c3ccc(C#N)cc3)[nH]c(=O)c2C#N)cc1      growth              123
4  Cc1ccc(C(=O)Nc2nc3c(s2)CN(Cc2ccccc2)CC3)cn1      growth             77.8
5  Cc1cccc(-c2nnc(SCC(=O)Nc3ncc(Cc4ccccc4)s3)n2N2C(=O)CSC2=S)c1      growth             77.2

---

Tested on: ACHN renal
Assay Overview: NCI-60 one-dose screen, 48 h (100 = growth as untreated, 0 = no growth, -100 = all killed)
Study Conditions: 10 µM unless noted
About 83,000 compounds went through this panel and 20% of them were active in at least one assay; those are over-represented in the sample as a whole.
Observable: growth (%)

                                   compound  observed_result
0  Cc1ccc(S(=O)(=O)OC[C@@]2(C)CC[C@]3(C)CC[C@]4(C)C(=C3C2)C=C[C@@H]2[C@@]3(C)CCCNC(C)(C)[C@@H]3CC[C@]24C)cc1            -46.6
1  CN(Cc1ccccc1)c1nc(Cl)c(C2CC(c3ccc(F)cc3)=NN2C=O)s1 (stereo not drawn)              105
2  CCCCCCCCCCCCCCCCCCn1cc(COc2ccc(C=O)cc2)nn1              104
